Value source: the RNAGym collection of RNA variant scans (doi:10.1073/pnas.2313332121)

B1: TPR t1 (parent)
chain: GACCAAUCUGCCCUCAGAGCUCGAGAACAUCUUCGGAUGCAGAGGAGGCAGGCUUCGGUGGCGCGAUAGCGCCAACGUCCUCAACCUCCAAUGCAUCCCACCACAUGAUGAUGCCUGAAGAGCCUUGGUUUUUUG

variants of: B1; assay: polymerase ribozyme fitness, log enrichment relative to wild type (log ratio); higher = more active; in vitro selection for triplet polymerase activity
Give True when the value for polymerase ribozyme fitness (log ratio) is at least -2. Give False when it is less.

Hi team, for C22G C82G U96A , is the recorded polymerase ribozyme fitness (log ratio) at or above -2?
False

Check the entry A41G U55A U130G : does polymerase ribozyme fitness (log ratio) equal or exceed -2?
True

Is polymerase ribozyme fitness (log ratio) at least -2? Consider A5G G44C A74U U96G
False

Check if polymerase ribozyme fitness (log ratio) >= -2 (inclusive). Item: C114U U129C
False

Determine whether measured polymerase ribozyme fitness (log ratio) meets or exceeds -2 for C4U C8A C28U U59A
False

Determine whether measured polymerase ribozyme fitness (log ratio) meets or exceeds -2 for C56G U87G A100C
True

Item C8A G48U C53A C62U C82U U106A A108G with polymerase ribozyme fitness (log ratio) of -2 or above?
True

Entry C70U C82A C123U G128A : is its polymerase ribozyme fitness (log ratio) no less than -2?
True

Does the reported polymerase ribozyme fitness (log ratio) for G60A A90G U96C C101G fall at or above the -2 mark?
True

Dear colleague, could you confirm whether U14G U21C has polymerase ribozyme fitness (log ratio) at or above -2?
False

Threshold query (polymerase ribozyme fitness (log ratio) >= -2) on U38A C102A
False

Does the variant C12U C53G have recorded polymerase ribozyme fitness (log ratio) that is -2 or more?
True

polymerase ribozyme fitness (log ratio) >= -2 for C11A G17U G61C A84G C124A ?
False

Does polymerase ribozyme fitness (log ratio) meet or surpass -2 for C70A C89G U125A ?
False

Is the recorded value of polymerase ribozyme fitness (log ratio) equal to or greater than -2 for this variant? A5C A118G
True

Quick check, polymerase ribozyme fitness (log ratio) >= -2? G77A C82G
True

Is polymerase ribozyme fitness (log ratio) for G71C U106A G113C at or above -2?
False

hey, is polymerase ribozyme fitness (log ratio) for this one >= -2? C13G C79A G113A
False

Say whether C31G C34G C97A C102A G113A shows polymerase ribozyme fitness (log ratio) of -2 or more.
False

Could you please find out whether C4A C8A A37U C56A has polymerase ribozyme fitness (log ratio) that meets -2 or exceeds it?
True

API: above_or_equal(metric=polymerase ribozyme fitness (log ratio), cutoff=-2) for item G17A C73U U112A A119U C123U U125C
False

Given U38G G52C U55G A74U , state whether its polymerase ribozyme fitness (log ratio) is at least -2.
False

Dear colleague, could you confirm whether G36C G39C C62U C124G U130G has polymerase ribozyme fitness (log ratio) at or above -2?
True

polymerase ribozyme fitness (log ratio) >= -2 for U112A C114A U133A ?
True

Identify whether the reported polymerase ribozyme fitness (log ratio) of the following variant is -2 or greater: G10U C12A G60A
True

hey, is polymerase ribozyme fitness (log ratio) for this one >= -2? A83C C104A
True

Dear colleague, could you confirm whether C80U G93C has polymerase ribozyme fitness (log ratio) at or above -2?
True

Assess whether reported polymerase ribozyme fitness (log ratio) for G51U U129C sits at -2 or higher.
False

In plain terms: is recorded polymerase ribozyme fitness (log ratio) at least -2 for A46C G48A G51A U87G C123A ?
True

Identify whether the reported polymerase ribozyme fitness (log ratio) of the following variant is -2 or greater: A27G G48C G71C G127C
False

polymerase ribozyme fitness (log ratio) >= -2 for G42A C114G ?
False

I'd appreciate it if you could say whether C11G G44A G60A A121U has polymerase ribozyme fitness (log ratio) at least equal to -2.
True

Quick check, polymerase ribozyme fitness (log ratio) >= -2? C72U A84G C114A C115A
False

Determine whether measured polymerase ribozyme fitness (log ratio) meets or exceeds -2 for C13G C15A
False

Determine whether this variant has polymerase ribozyme fitness (log ratio) no lower than -2: G48A C88U U96A
True

Check the entry C8A G36U G69A C88A C115U U131G : does polymerase ribozyme fitness (log ratio) equal or exceed -2?
False

Threshold query (polymerase ribozyme fitness (log ratio) >= -2) on G39U C88U C94U U106G A121C
True

In plain terms: is recorded polymerase ribozyme fitness (log ratio) at least -2 for U59C U112C ?
True

Does polymerase ribozyme fitness (log ratio) meet or surpass -2 for C31U C73A A95C ?
False

In plain terms: is recorded polymerase ribozyme fitness (log ratio) at least -2 for G10A C76G G120A ?
True

For this variant, is measured polymerase ribozyme fitness (log ratio) -2 or higher? G39A G57U G71U U78G C123A
True

Reported polymerase ribozyme fitness (log ratio) reaches at least -2 for C15A C49A C86A A95U G110A C123A ?
False

Entry G63C : is its polymerase ribozyme fitness (log ratio) no less than -2?
True

Hi team, for C13G C15U , is the recorded polymerase ribozyme fitness (log ratio) at or above -2?
False

Would you say C64G U106A shows polymerase ribozyme fitness (log ratio) at minimum -2?
False

Is polymerase ribozyme fitness (log ratio) for U55G C62A A74U C102A at or above -2?
False

Does the reported polymerase ribozyme fitness (log ratio) for U78G C97A fall at or above the -2 mark?
False

Determine whether this variant has polymerase ribozyme fitness (log ratio) no lower than -2: C70A G127C
False

Assess whether reported polymerase ribozyme fitness (log ratio) for C12A C20A G63C G113U C115U U131A sits at -2 or higher.
False

Given the entry U32C G71U , answer whether its polymerase ribozyme fitness (log ratio) meets or surpasses -2.
True

# check: polymerase ribozyme fitness (log ratio) of G63A C115U is greater than or equal to -2
True

Is polymerase ribozyme fitness (log ratio) at least -2? Consider A29G A118U
True

Answer whether polymerase ribozyme fitness (log ratio) of C8G A46G is greater than or equal to -2.
True

Decide: is the reported value of polymerase ribozyme fitness (log ratio) for C13U G51U G52U U78C C82A equal to or greater than -2?
False

I'd appreciate it if you could say whether G61A A74C G120U has polymerase ribozyme fitness (log ratio) at least equal to -2.
False

Entry U38G A41U : is its polymerase ribozyme fitness (log ratio) no less than -2?
False

Exam item: decide whether the reported polymerase ribozyme fitness (log ratio) for G71U C101G is at least -2.
True

Hello, I need to know if C82U G93C G117U has measured polymerase ribozyme fitness (log ratio) not below -2. Thanks!
False

Exam item: decide whether the reported polymerase ribozyme fitness (log ratio) for U38A G127A is at least -2.
False

Kindly determine if polymerase ribozyme fitness (log ratio) recorded for G17U C101A G107U G120C G127A U132C is above or exactly -2.
False

polymerase ribozyme fitness (log ratio) >= -2 for G39U G65A ?
False

Please tell me: is the variant C82A C86G at or over -2 in terms of polymerase ribozyme fitness (log ratio)?
True

Test whether the variant U38A C64U U132A records polymerase ribozyme fitness (log ratio) of -2 or higher.
True

Evaluate G63A A83G A90G C98G A105C : polymerase ribozyme fitness (log ratio) at minimum -2?
False

// inclusive: polymerase ribozyme fitness (log ratio) at least -2? input: U112G G135U
True

In plain terms: is recorded polymerase ribozyme fitness (log ratio) at least -2 for U59C G63A G69U ?
False

// inclusive: polymerase ribozyme fitness (log ratio) at least -2? input: U54C A118G
True

In plain terms: is recorded polymerase ribozyme fitness (log ratio) at least -2 for U92C C101U C104U ?
True

# check: polymerase ribozyme fitness (log ratio) of A37C G63C A74C is greater than or equal to -2
False

Check this variant for polymerase ribozyme fitness (log ratio) at or above -2: C3G C124A
True

For this variant, is measured polymerase ribozyme fitness (log ratio) -2 or higher? A5U G71U
True

Is it the case that U9A G52C C94U C101A has polymerase ribozyme fitness (log ratio) reaching or exceeding -2?
True

Is the recorded value of polymerase ribozyme fitness (log ratio) equal to or greater than -2 for this variant? G36U G60C G69U A100U
False

Exam item: decide whether the reported polymerase ribozyme fitness (log ratio) for C8G U125A is at least -2.
True

Evaluate G36A A121C : polymerase ribozyme fitness (log ratio) at minimum -2?
True

Record A2C G71U ; criterion: polymerase ribozyme fitness (log ratio) no lower than -2. Met?
False

Say whether A6G G45C C94U G120A U126G shows polymerase ribozyme fitness (log ratio) of -2 or more.
False

// inclusive: polymerase ribozyme fitness (log ratio) at least -2? input: C56U C94U
True

Entry U54C G71A C85G C101U U112G G120C : is its polymerase ribozyme fitness (log ratio) no less than -2?
False

For this variant, is measured polymerase ribozyme fitness (log ratio) -2 or higher? U112A G113A
True

Could you tell me if the measured polymerase ribozyme fitness (log ratio) of U33C C64U reaches -2 or more?
False

Decide: polymerase ribozyme fitness (log ratio) of C12A G71U G117C U126C >= -2?
False

Record G10A C49G U133A ; criterion: polymerase ribozyme fitness (log ratio) no lower than -2. Met?
True

Hi team, for C11U C15G U112A , is the recorded polymerase ribozyme fitness (log ratio) at or above -2?
False

Quick check: does C73U U109C have polymerase ribozyme fitness (log ratio) greater than or equal to -2?
False

API: above_or_equal(metric=polymerase ribozyme fitness (log ratio), cutoff=-2) for item C8A U21A C34G C70A U109G
False

Does the variant C11U C49U have recorded polymerase ribozyme fitness (log ratio) that is -2 or more?
True

Does the variant G10A G69U G93A G110A A121U U132C have recorded polymerase ribozyme fitness (log ratio) that is -2 or more?
True

Hi team, for C13U A50G G52A G69A G77U , is the recorded polymerase ribozyme fitness (log ratio) at or above -2?
False
